Tested on: PC3 metastatic prostate carcinoma cells
Method: LDH cytotoxicity assay, PC3
Assay type: cell-based
Cond: Homo sapiens; PC3, 24 h incubation, LDH test; read-out: Cytotoxic activity expressed as IC50
Entries and their IC50 values follow.

CC1(C)CC[C@]2(C(=O)O[C@@H]3O[C@H](CO)[C@@H](O)[C@H](O)[C@H]3O)CC[C@]3(C)C(=CC[C@@H]4[C@@]5(C)CC[C@H](O[C@@H]6O[C@H](CO)[C@@H](O)[C@H](O[C@@H]7O[C@H](CO)[C@@H](O)[C@H](O)[C@H]7O)[C@H]6O)[C@@](C)(CO)[C@@H]5CC[C@]43C)[C@@H]2C1	> 100 µg/mL
CC1(C)CC[C@]2(C(=O)O[C@@H]3O[C@H](CO)[C@@H](O)[C@H](O)[C@H]3O)CC[C@]3(C)C(=CC[C@@H]4[C@@]5(C)CC[C@H](O)[C@@](C)(CO)[C@@H]5CC[C@]43C)[C@@H]2C1	> 100 µg/mL
COc1cccc2c1C(=O)c1c(O)c3c(c(O)c1C2=O)C[C@@](O)(C(=O)CO)C[C@@H]3O[C@H]1C[C@H](N)[C@H](O)[C@H](C)O1	> 40 µg/mL

In the following, a different molecule is considered.
Query :: Please tell me: IC50 of CC1(C)CC[C@]2(C(=O)O)CC[C@]3(C)C(=CC[C@@H]4[C@@]5(C)CC[C@H](O)[C@@](C)(CO)[C@@H]5CC[C@]43C)[C@@H]2C1 , system PC3 metastatic prostate carcinoma cells?
Result :: > 100 µg/mL

###

Method: LDH cytotoxicity assay, HaCaT
Assay type: cell-based, human
Cond: human, HaCaT normal keratinocytes, HaCaT normal cells, 48 h incubation, LDH test; read-out: Cytotoxic activity expressed as IC50
Value kind: IC50 at 48 h

Query :: Reported IC50 at 48 h for CC1(C)CC[C@]2(C(=O)O)CC[C@]3(C)C(=CC[C@@H]4[C@@]5(C)CC[C@H](O)[C@@](C)(CO)[C@@H]5CC[C@]43C)[C@@H]2C1 : what is it?
Result :: > 100 µg/mL

###

Test system: 8505C undifferentiated thyroid carcinoma cells
Method: LDH cytotoxicity assay, 8505C
Type: cell-based
Cond: Homo sapiens, 24 h incubation, LDH test, read-out: Cytotoxic activity expressed as IC50
Property: IC50; scope: individual compounds

CC1(C)CC[C@]2(C(=O)O[C@@H]3O[C@H](CO)[C@@H](O)[C@H](O)[C@H]3O)CC[C@]3(C)C(=CC[C@@H]4[C@@]5(C)CC[C@H](O)[C@@](C)(CO)[C@@H]5CC[C@]43C)[C@@H]2C1	> 100 µg/mL
CC1(C)CC[C@]2(C(=O)O)CC[C@]3(C)C(=CC[C@@H]4[C@@]5(C)CC[C@H](O)[C@@](C)(CO)[C@@H]5CC[C@]43C)[C@@H]2C1	> 100 µg/mL
COc1cccc2c1C(=O)c1c(O)c3c(c(O)c1C2=O)C[C@@](O)(C(=O)CO)C[C@@H]3O[C@H]1C[C@H](N)[C@H](O)[C@H](C)O1	> 40 µg/mL

From here, focus on the item given below.
Query :: Data request, read-out IC50, for CC1(C)CC[C@]2(C(=O)O[C@@H]3O[C@H](CO)[C@@H](O)[C@H](O)[C@H]3O)CC[C@]3(C)C(=CC[C@@H]4[C@@]5(C)CC[C@H](O[C@@H]6O[C@H](CO)[C@@H](O)[C@H](O[C@@H]7O[C@H](CO)[C@@H](O)[C@H](O)[C@H]7O)[C@H]6O)[C@@](C)(CO)[C@@H]5CC[C@]43C)[C@@H]2C1
Result :: > 100 µg/mL
